Origin of measurements: paper PMC9005681

Target: cloned human or rodent CNS receptors, channels, and transporters (PDSP panel) (Homo sapiens)
Construct: expressed in transfected cells
Sequence (P08173 1-479): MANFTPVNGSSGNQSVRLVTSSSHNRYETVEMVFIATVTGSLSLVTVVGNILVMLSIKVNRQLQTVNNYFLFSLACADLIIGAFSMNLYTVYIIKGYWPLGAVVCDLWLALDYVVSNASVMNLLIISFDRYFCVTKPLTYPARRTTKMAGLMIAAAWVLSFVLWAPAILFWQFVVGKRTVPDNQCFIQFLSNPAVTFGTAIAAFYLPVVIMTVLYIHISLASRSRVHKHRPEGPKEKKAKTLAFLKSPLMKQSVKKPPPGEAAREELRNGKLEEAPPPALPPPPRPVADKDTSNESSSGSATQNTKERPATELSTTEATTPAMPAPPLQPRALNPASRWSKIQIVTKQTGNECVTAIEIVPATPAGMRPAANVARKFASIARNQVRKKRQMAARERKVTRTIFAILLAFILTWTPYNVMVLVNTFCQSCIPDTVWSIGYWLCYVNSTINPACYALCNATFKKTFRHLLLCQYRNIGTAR
Test: PDSP GPCR panel primary binding assays at 10 μM
Conditions: M4; primary assay, replicate 3
// reported Inhibition 3 for each item listed
MEASUREMENT LABEL: Inhibition 3 (%)

> print(dat)
                                   compound  observed
1  CCC(=O)N1CCC(NC(=O)Nc2ccc(OC(F)(F)F)cc2)CC1 [UNC10302681A, TPPU]     30.66
2  CNc1nc(C)nc(N[C@H]2CCC[C@@H](C(=O)NCc3ccc(C#N)cc3C(F)(F)F)C2)n1 [UNC10302679A, GSK2256294A]      7.46
3  CC(=O)N1CCC(NC(=O)NC23CC4CC(CC(C4)C2)C3)CC1 [UNC10302683A, AR9281]      4.25
4  O=C(NC1CC1)C(=O)C(Cc1ccccc1)NC(=O)[C@H]1CCC(=O)N1Cc1ccccc1 (stereo partly shown) [UNC10302676A, ABT-957 (Alicapistat)]    -11.37

====

// reported Inhibition 3 for each item listed
Target: cloned human or rodent CNS receptors, channels, and transporters (PDSP panel) (Homo sapiens, UniProt P41595)
Construct: expressed in transfected cells
Sequence (P41595 whole entry): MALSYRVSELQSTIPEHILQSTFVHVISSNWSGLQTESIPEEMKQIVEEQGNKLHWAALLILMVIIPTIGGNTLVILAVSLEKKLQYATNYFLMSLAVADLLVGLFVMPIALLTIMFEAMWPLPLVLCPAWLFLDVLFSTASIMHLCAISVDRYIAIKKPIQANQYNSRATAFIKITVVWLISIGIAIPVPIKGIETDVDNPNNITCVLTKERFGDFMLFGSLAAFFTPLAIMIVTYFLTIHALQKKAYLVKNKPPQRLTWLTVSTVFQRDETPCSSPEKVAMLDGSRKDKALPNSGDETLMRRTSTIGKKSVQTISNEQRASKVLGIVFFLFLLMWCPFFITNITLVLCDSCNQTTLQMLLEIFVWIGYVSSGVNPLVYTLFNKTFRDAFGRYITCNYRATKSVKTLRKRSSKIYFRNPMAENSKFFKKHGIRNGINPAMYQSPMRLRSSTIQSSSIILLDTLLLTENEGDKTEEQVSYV
Assay: PDSP GPCR panel primary binding assays at 10 μM
Details: Receptor 5-HT2B; primary assay, 10 μM
MEASUREMENT LABEL: Inhibition 3 (%)

> print(dat)
                                   compound  measurement.label  observed
1  CCCCNc1ncc2c(-c3ccc(CN4CCN(C)CC4)cc3)cn([C@H]3CC[C@H](O)CC3)c2n1 [UNC2025C, UNC2025]       Inhibition 3      -7.6
2  c1cn2cc(-c3ccc4cn[nH]c4c3)nc(Nc3ccc(N4CCOCC4)cc3)c2n1 [UNC10302678A, Entospletinib (GS-9973)]       Inhibition 3    -21.45
3  Cl.NC(=O)c1cnc(N[C@@H]2CCCC[C@@H]2N)nc1Nc1cccc(-n2nccn2)c1 [UNC10302682A, P505-15 (PRT06207 HCl)]       Inhibition 3     -9.28
4  O=c1oc2ccccc2cc1-c1cn2cc(Cc3ccc(F)cc3)sc2n1 [UNC10302680A, iMDK]       Inhibition 3    -23.13

====

// reported Inhibition 4 for each item listed
Tested on: cloned human or rodent CNS receptors, channels, and transporters (PDSP panel)
Assay: PDSP GPCR panel primary binding assays at 10 μM
Details: Receptor Alpha2C; primary assay, 10 μM
MEASUREMENT LABEL: Inhibition 4 (%)

> print(dat)
                                   compound  readout.units  observed
1  Cl.NC(=O)c1cnc(N[C@@H]2CCCC[C@@H]2N)nc1Nc1cccc(-n2nccn2)c1 [UNC10302682A, P505-15 (PRT06207 HCl)]              %     26.53
2  O=c1oc2ccccc2cc1-c1cn2cc(Cc3ccc(F)cc3)sc2n1 [UNC10302680A, iMDK]              %         4
3  CCCCNc1ncc2c(-c3ccc(CN4CCN(C)CC4)cc3)cn([C@H]3CC[C@H](O)CC3)c2n1 [UNC2025C, UNC2025]              %     27.54
4  c1cn2cc(-c3ccc4cn[nH]c4c3)nc(Nc3ccc(N4CCOCC4)cc3)c2n1 [UNC10302678A, Entospletinib (GS-9973)]              %     11.76

====

Target: cloned human or rodent CNS receptors, channels, and transporters (PDSP panel) (Homo sapiens)
Construct: expressed in transfected cells
Assay: PDSP GPCR panel primary binding assays at 10 μM
Conditions: M4; primary assay, replicate 2
MEASUREMENT LABEL: Inhibition 2 (%)

> print(dat)
                                   compound  readout.units  observed
1  O=C(NC1CC1)C(=O)C(Cc1ccccc1)NC(=O)[C@H]1CCC(=O)N1Cc1ccccc1 (stereo partly shown) [UNC10302676A, ABT-957 (Alicapistat)]              %     -2.41
2  CC(=O)N1CCC(NC(=O)NC23CC4CC(CC(C4)C2)C3)CC1 [UNC10302683A, AR9281]              %     16.88
3  CCC(=O)N1CCC(NC(=O)Nc2ccc(OC(F)(F)F)cc2)CC1 [UNC10302681A, TPPU]              %      6.55
4  CNc1nc(C)nc(N[C@H]2CCC[C@@H](C(=O)NCc3ccc(C#N)cc3C(F)(F)F)C2)n1 [UNC10302679A, GSK2256294A]              %      4.02

====

Biological target: cloned human or rodent CNS receptors, channels, and transporters (PDSP panel) (Homo sapiens, UniProt Q01959)
Construct: expressed in transfected cells
Sequence (Q01959 whole entry): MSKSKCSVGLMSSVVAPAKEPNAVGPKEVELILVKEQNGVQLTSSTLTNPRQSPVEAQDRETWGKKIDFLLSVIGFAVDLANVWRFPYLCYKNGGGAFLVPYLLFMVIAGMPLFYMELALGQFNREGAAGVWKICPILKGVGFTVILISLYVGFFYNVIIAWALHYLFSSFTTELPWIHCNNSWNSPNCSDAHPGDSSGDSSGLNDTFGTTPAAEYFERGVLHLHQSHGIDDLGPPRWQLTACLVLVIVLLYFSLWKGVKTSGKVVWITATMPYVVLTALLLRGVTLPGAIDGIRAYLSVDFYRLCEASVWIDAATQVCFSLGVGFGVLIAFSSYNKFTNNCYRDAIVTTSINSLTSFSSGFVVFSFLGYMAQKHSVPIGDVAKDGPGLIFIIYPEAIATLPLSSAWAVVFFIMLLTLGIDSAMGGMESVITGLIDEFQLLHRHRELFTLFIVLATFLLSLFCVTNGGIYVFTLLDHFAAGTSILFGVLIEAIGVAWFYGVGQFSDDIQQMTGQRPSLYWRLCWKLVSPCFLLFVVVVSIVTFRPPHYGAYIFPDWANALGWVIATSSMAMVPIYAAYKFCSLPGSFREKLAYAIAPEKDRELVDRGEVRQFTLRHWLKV
Test: PDSP GPCR panel primary binding assays at 10 μM
Details: DAT; primary assay, replicate 4
MEASUREMENT LABEL: Inhibition 4

> print(dat)
                                   compound  measurement.label  observed
1  O=c1oc2ccccc2cc1-c1cn2cc(Cc3ccc(F)cc3)sc2n1 [UNC10302680A, iMDK]       Inhibition 4     26.9%
2  CNc1nc(C)nc(N[C@H]2CCC[C@@H](C(=O)NCc3ccc(C#N)cc3C(F)(F)F)C2)n1 [UNC10302679A, GSK2256294A]       Inhibition 4    51.53%
3  CCC(=O)N1CCC(NC(=O)Nc2ccc(OC(F)(F)F)cc2)CC1 [UNC10302681A, TPPU]       Inhibition 4    45.27%
4  O=C(NC1CC1)C(=O)C(Cc1ccccc1)NC(=O)[C@H]1CCC(=O)N1Cc1ccccc1 (some centres unmarked) [UNC10302676A, ABT-957 (Alicapistat)]       Inhibition 4    27.66%
5  CC(=O)N1CCC(NC(=O)NC23CC4CC(CC(C4)C2)C3)CC1 [UNC10302683A, AR9281]       Inhibition 4    66.66%

====

Biological target: cloned human or rodent CNS receptors, channels, and transporters (PDSP panel) (Homo sapiens)
Construct: expressed in transfected cells
Experiment: PDSP GPCR panel primary binding assays at 10 μM
Details: MOR; primary assay, replicate 2
// reported Inhibition 2 for each item listed
MEASUREMENT LABEL: Inhibition 2 (%)

> print(dat)
                                   compound  readout.units  observed
1  CNc1nc(C)nc(N[C@H]2CCC[C@@H](C(=O)NCc3ccc(C#N)cc3C(F)(F)F)C2)n1 [UNC10302679A, GSK2256294A]              %      0.06
2  CC(=O)N1CCC(NC(=O)NC23CC4CC(CC(C4)C2)C3)CC1 [UNC10302683A, AR9281]              %     12.43
3  O=C(NC1CC1)C(=O)C(Cc1ccccc1)NC(=O)[C@H]1CCC(=O)N1Cc1ccccc1 (stereo partly shown) [UNC10302676A, ABT-957 (Alicapistat)]              %     13.58
4  CCC(=O)N1CCC(NC(=O)Nc2ccc(OC(F)(F)F)cc2)CC1 [UNC10302681A, TPPU]              %      3.61

====

Molecular target: cloned human or rodent CNS receptors, channels, and transporters (PDSP panel) (Homo sapiens, UniProt P08908)
Construct: expressed in transfected cells
Sequence (P08908 whole entry): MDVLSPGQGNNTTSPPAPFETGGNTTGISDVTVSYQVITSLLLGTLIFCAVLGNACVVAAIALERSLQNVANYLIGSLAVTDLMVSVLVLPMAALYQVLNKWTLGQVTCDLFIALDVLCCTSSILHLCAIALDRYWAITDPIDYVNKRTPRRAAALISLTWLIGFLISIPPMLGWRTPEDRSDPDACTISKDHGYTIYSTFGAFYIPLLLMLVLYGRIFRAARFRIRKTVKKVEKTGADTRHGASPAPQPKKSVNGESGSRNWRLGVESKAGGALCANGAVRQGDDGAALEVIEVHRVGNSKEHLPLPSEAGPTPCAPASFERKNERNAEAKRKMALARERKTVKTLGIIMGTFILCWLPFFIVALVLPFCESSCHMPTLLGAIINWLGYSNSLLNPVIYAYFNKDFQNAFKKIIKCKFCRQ
Test: PDSP GPCR panel primary binding assays at 10 μM
Details: 5-HT1A; primary assay, mean inhibition
MEASUREMENT LABEL: Mean % (%)

> print(dat)
                                   compound  readout.units  observed
1  CCC(=O)N1CCC(NC(=O)Nc2ccc(OC(F)(F)F)cc2)CC1 [UNC10302681A, TPPU]              %      6.94
2  CNc1nc(C)nc(N[C@H]2CCC[C@@H](C(=O)NCc3ccc(C#N)cc3C(F)(F)F)C2)n1 [UNC10302679A, GSK2256294A]              %      4.14
3  O=C(NC1CC1)C(=O)C(Cc1ccccc1)NC(=O)[C@H]1CCC(=O)N1Cc1ccccc1 (stereo partly shown) [UNC10302676A, ABT-957 (Alicapistat)]              %      3.84
4  CC(=O)N1CCC(NC(=O)NC23CC4CC(CC(C4)C2)C3)CC1 [UNC10302683A, AR9281]              %     -6.08
